From: patent US20060252807A1

Target: active p38 alpha enzyme (Upstate Biotechnology) (Homo sapiens, UniProt Q16539)
Construct: purchased Upstate Biotechnology
Sequence (Q16539 whole entry): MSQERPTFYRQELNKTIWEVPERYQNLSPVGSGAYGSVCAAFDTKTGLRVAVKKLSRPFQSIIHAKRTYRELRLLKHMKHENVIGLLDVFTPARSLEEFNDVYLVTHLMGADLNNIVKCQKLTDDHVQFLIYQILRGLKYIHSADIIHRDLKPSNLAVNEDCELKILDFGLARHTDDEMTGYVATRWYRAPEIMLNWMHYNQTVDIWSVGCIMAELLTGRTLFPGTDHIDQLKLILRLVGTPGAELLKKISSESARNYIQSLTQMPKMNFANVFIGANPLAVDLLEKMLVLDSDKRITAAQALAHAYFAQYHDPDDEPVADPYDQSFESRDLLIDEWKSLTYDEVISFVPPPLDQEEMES
Assay: p38α biochemical assay (ATP turnover, luminescent detection, Cambrex PKlight)
Details: p38α kinase; Table 1 Biological Activity
pIC50: −log10 of the molar value.
readout_type: pIC50

Worked examples, 5 molecules total:
- Cc1cccnc1NCc1onc(-c2ccc(F)cc2)c1-c1nc(C(=O)NC(C)C)cs1 [Example 1637]: < 6.00
- CC(C)NC(=O)c1csc(-c2c(-c3ccc(F)cc3)noc2CNCCN)n1 [Example 1389]: < 6.00
- CCN(Cc1nc(-c2ccc(F)cc2)c(-c2nc(C(=O)NC(C)C)cs2)o1)C(C)C [Example 1193]: < 6.00
- Cc1nc(-c2ccc(F)cc2)c(-c2nc(C(=O)Nc3cc(F)c(F)cc3F)cs2)s1 [Example 1995]: < 6.00
- COc1ccc(/C=C/C(=O)N2CCC(c3[nH]nc(-c4ccc(F)cc4)c3-c3nc(C(=O)NC(C)C)cs3)CC2)cc1O [Example 976]: < 6.00

IN: Any idea what its pIC50 is? The molecule is Cc1nc(-c2ccc(F)cc2)c(-c2nc(C(=O)NC3CCCC3)cs2)s1 [Example 1721]
OUT: ≥ 6.00

IN: Any idea what its pIC50 is? The molecule is Cc1nc(-c2ccc(F)cc2)c(-c2nc(C(=O)NCCCO)cs2)s1 [Example 1718]
OUT: ≥ 6.00

IN: Any idea what its pIC50 is? The molecule is CC(C)NC(=O)c1csc(-c2oc(CN3CCC(C(N)=O)CC3)nc2-c2ccc(F)cc2)n1 [Example 1219]
OUT: < 6.00

* * *

Target: active p38 alpha enzyme (Upstate Biotechnology) (Homo sapiens)
Construct: purchased Upstate Biotechnology
Experiment: p38α biochemical assay (ATP turnover, luminescent detection, Cambrex PKlight)
Conditions: p38α kinase; Table 1 Biological Activity
pIC50: −log10 of the molar value.
readout_type: pIC50

Worked examples, 3 compounds total:
* Cc1nc(-c2ccc(F)cc2)c(-c2nc(C(=O)Nc3ccc(C(F)(F)F)cc3)cs2)s1 | < 6.00
* C#CCNCc1onc(-c2ccc(F)cc2)c1-c1nc(C(=O)NC(C)C)cs1 | < 6.00
* Cc1cnc(CNC(=O)c2csc(-c3c(-c4ccc(F)cc4)n[nH]c3C3CCNCC3)n2)cn1 | < 6.00

IN: Any idea what pIC50 came out for CCN(CC)Cc1nc(-c2ccc(F)cc2)c(-c2nc(C(=O)NC(C)C)cs2)o1 on active p38 alpha enzyme (Upstate Biotechnology) (Homo sapiens)?
OUT: < 6.00

IN: Any idea what pIC50 came out for Cc1ccccc1NCc1nc(-c2ccc(F)cc2)c(-c2nc(C(=O)NC(C)C)cs2)o1 on active p38 alpha enzyme (Upstate Biotechnology) (Homo sapiens)?
OUT: < 6.00

IN: Any idea what pIC50 came out for CC(C)NC(=O)c1csc(-c2c(-c3ccc(F)cc3)n[nH]c2C2CCN(C(=O)c3ccncc3Cl)CC2)n1 on active p38 alpha enzyme (Upstate Biotechnology) (Homo sapiens)?
OUT: ≥ 6.00

IN: Any idea what pIC50 came out for Cc1nc(-c2ccc(F)cc2)c(-c2nc(C(=O)NCc3ccc(Cl)c(Cl)c3)cs2)s1 on active p38 alpha enzyme (Upstate Biotechnology) (Homo sapiens)?
OUT: ≥ 6.00

IN: Any idea what pIC50 came out for CC(C)NC(=O)c1csc(-c2oc(CN3CCCCC3C)nc2-c2ccc(F)cc2)n1 (stereo not shown) on active p38 alpha enzyme (Upstate Biotechnology) (Homo sapiens)?
OUT: < 6.00
